All figures here come from ChEMBL document CHEMBL1201862.

System: NCI-H226
Experiment: NCI tumour cell line growth inhibition, 48 h
Active and inactive are the calls of the source. Cut-off read from the data, not from the text of the source: active = GI50 up to about 1.1 µM and inactive = higher.
Field 'call' accepts active, inactive

The following compounds have reported results that may help.
| compound | cat |
| --- | --- |
| CC(=O)O[C@H]1C(=O)[C@@]2(C)[C@H]([C@H](OC(=O)C3CCCCC3)[C@]3(O)C[C@H](OC(=O)[C@H](O)[C@@H](NC(=O)OC(C)(C)C)c4ccccc4)C(C)=C1C3(C)C)[C@]1(OC(C)=O)CO[C@@H]1C[C@@H]2O | active |
| Cc1cn2cc(-c3cccs3)nc2s1 | inactive |
| O=C(CC(C(=O)c1ccc(F)cc1)c1ccsc1)c1cccs1 (centres undefined) | inactive |

Next up:
Task: Outcome logged for `CC1(C)COC(c2ccccc2-c2ccccc2)=N1` in this assay:
Output: inactive

====

Test system: IGROV-1
Experiment: NCI tumour cell line growth inhibition, 48 h
Activity calls are given as the source filed them. No stated cut-off is given here; in the data, active = GI50 up to about 1.1 µM and inactive = higher.
Field 'call' accepts label 1 (active), label 0 (inactive)

| molecule | cat |
| --- | --- |
| Cc1ccc(NC(Nc2ccc(C)cc2C)=C(/C=C(\Cl)[N+](=O)[O-])[N+](=O)[O-])c(C)c1 | label 0 |
| O=C(O)[C@H](CCC[C@H]1C(=O)O[C@H](c2ccccc2)[C@H](c2ccccc2)N1C(=O)OCc1ccccc1)N[C@@H](c1ccccc1)[C@H](O)c1ccccc1 | label 0 |
| O=C(c1ccco1)N(C(=S)N1CCN(c2ccccn2)CC1)c1ccccc1 | label 0 |
| Cc1ccc(NC(=O)C(=O)CC(=O)c2c(C)[n+]([O-])c3ccccc3[n+]2[O-])cc1C | label 0 |
| N=CCCN(CCC=N)c1ccc(/C=C2\CN(NC(=O)c3ccc(Cl)cc3)C(c3ccccc3)=N2)cc1 | label 0 |
| NC(=S)N/N=C/C1NCCC2CCCCC21 (centres undefined) | label 1 |

Task: Outcome logged for `N#Cc1cc(-c2nc3c(F)cccc3s2)ccc1N` in this assay:
Output: label 0

Task: Outcome logged for COC(=O)C1(C(=O)OC)CC2c3c(c4ccccc4n3C)CC(C1=O)N2Cc1ccccc1 (centres undefined) in this assay:
Output: label 0

Task: Outcome logged for COC(=O)C(C(=O)C(=O)Nc1nc2ccc(OC)cc2s1)c1cnc2ccccc2n1 (centres undefined) in this assay:
Output: label 0

====

Test system: ACHN
Experiment: NCI tumour cell line growth inhibition, 48 h
Activity calls are given as the source filed them. No stated cut-off is given here; in the data, active = GI50 up to about 1.1 µM and inactive = higher.
Item-by-item account of GI50

Before answering, review these 4 worked examples.
| compound | tested-on | GI50 |
| --- | --- | --- |
| OC1C=C2C3CN(Cc4cc5c(cc43)OCO5)[C@H]2C[C@@H]1O (stereo not given in full) | ACHN | 2.65 µM (inactive) |
| CCCOc1ccc(-c2nc(-c3ccc(/N=C/c4ccc(N(CCOS(C)(=O)=O)CCOS(C)(=O)=O)cc4C)cc3)cs2)cc1 | ACHN | 1.46 µM (inactive) |
| CCOC(=O)C(C(=O)OCC)=C1NC2(c3ccccc3Nc3ccccc32)C(C#N)S1 (stereo not given) | ACHN | 14.9 µM (inactive) |
| O=c1c2ccccc2oc2ccccc12.Oc1cccc2cccnc12 | ACHN | 3.12 µM (inactive) |

# input for lookup
Task: State, for ACHN, measured GI50 of the compound listed here: O=C(O)CC1OCC=C2C[N+]3([O-])CCC45c6ccccc6NC4C1C2CC53 (stereo not given)
Output: > 100 µM (inactive)
